Test system: KM12 colon
Assay: NCI-60 one-dose screen, 48 h
Conditions: 10 µM unless noted
About 83,000 compounds went through this panel and 20% of them were active in at least one assay; those are over-represented in the sample as a whole. Activity calls are given as the source filed them. How the source made its calls: active means growth percent below 10; inactive means the rest.
Classes to choose from: active, inactive

Name the outcome recorded for "N#Cc1ccc(C(=O)CSc2nc(Nc3ccc(S(N)(=O)=O)cc3)c3ccccc3n2)cc1" in the assay.
inactive

Can you handle "Nc1ncc(-c2ccc3ncnc(N4CCc5cc(F)c(Cl)cc54)c3c2)cc1CO" next?
active

Can you handle "CCOc1ccc2nc(NC(=O)c3ccc(C(F)(F)F)cc3)sc2c1" next?
inactive

Can you handle "Nc1c(C(=O)Nc2ccc(C(F)(F)F)cc2)sc2nc(-c3cnccn3)cc(-c3cccs3)c12" next?
inactive

Can you handle "O=C(N/N=C/c1ccco1)c1[nH]c2ccc(Br)cc2c1-c1ccccc1" next?
inactive

Can you handle "CC(=NNc1ncnc2ccccc12)c1ccc(S(C)(=O)=O)cc1" next?
inactive

Can you handle "COc1ccc(/C=N/Nc2ccnc3cc(Cl)ccc23)cc1Cl" next?
active

Can you handle "O=C(CSc1nc2sc3c(c2c(=O)n1-c1ccc(Cl)cc1)CCCC3)NNC(=O)Nc1ccc(Cl)c(C(F)(F)F)c1" next?
inactive

Can you handle CSCCC(C(=O)O)N1C(=O)/C(=C/c2ccc(O)c(O)c2)SC1=S (stereo unspecified) next?
inactive

Can you handle "[Cl][Ru].c1ccc(-c2cc(-c3ccccn3)nc(-c3ccccn3)c2)cc1.c1ccc(-c2ccnc3c2ccc2c(-c4ccccc4)ccnc23)cc1" next?
active

Can you handle "O=C1Nc2cc(Cl)ccc2/C1=C\c1ccc(OCc2ccc(Br)cc2F)cc1" next?
active

Can you handle CC(O)C(NC(=O)C1CCCN1C(=O)CNC(=O)C1CC(=O)NCC(=O)NC(Cc2c[nH]c3ccccc23)C(=O)NC(Cc2ccc(O)cc2)C(=O)NCC(=O)NC(CO)C(=O)NC(CCC(N)=O)C(=O)NC(Cc2c[nH]c3ccccc23)C(=O)N1)C(=O)NCC(=O)NC(CCC(N)=O)C(=O)NC(CCCNC(=N)N)C(=O)NC(CC(=O)O)C(=O)O (stereo unspecified) next?
inactive

Can you handle "O=C(CCCN1C(=O)/C(=C/c2ccccc2F)SC1=S)N1CCOCC1" next?
inactive

Can you handle "NS(=O)(=O)c1cccc(Nc2nc(SCC(=O)c3ccc(Cl)cc3)nc3ccccc23)c1" next?
inactive

Can you handle "NS(=O)(=O)c1ccc(Nc2nc(Nc3ccccc3)nc(-n3nc(-c4ccccc4)cc3-c3ccccc3)n2)cc1" next?
active

Can you handle C#Cc1nc(C2=C(C)C(OC(=O)CCC(=O)O)CC2)cs1 (stereo unspecified) next?
inactive

Can you handle "COc1cccc(N2CCN(c3ncnc4c3[nH]c3ccc(F)cc34)C[C@@H]2C)c1" next?
active

Can you handle N#Cc1nc(-c2ccccc2)oc1N1CCC(CO)C1 (stereo unspecified) next?
inactive

Can you handle "Cc1sc2nc(NCc3ccccc3Cl)[nH]c(=O)c2c1C" next?
inactive

Can you handle "O=C(NNc1nc2cc(F)ccc2n2c(CN3CC4(COC4)C3)ccc12)c1cnccn1" next?
inactive

Can you handle "COc1ccc(/C=C2\SC(=Nc3cc(C)on3)NC2=O)cc1" next?
inactive

Can you handle "O=C(CSc1nc2sc3c(c2c(=O)n1-c1ccc(Cl)cc1)CCCC3)N/N=C/c1ccc(F)cc1" next?
inactive

Can you handle "CN(C)c1ccc(/C=c2\sc3nc4ccccc4n3c2=O)cc1" next?
inactive

Can you handle "CN1CCN(Cc2ccc(NC(=O)c3cncc(C#Cc4cnc5ccc(N6CCSCC6)nn45)c3)cc2C(F)(F)F)CC1" next?
active

Can you handle "C/C(=N/NC(N)=S)c1ccc(Nc2nc(SCC(C)C)nc(-c3ccc(F)cc3)c2C#N)cc1" next?
inactive

Can you handle "O=C(N/N=C/c1ccc([N+](=O)[O-])o1)c1[nH]c2ccc(Br)cc2c1-c1ccccc1" next?
inactive

Can you handle CCN1C(=S)N(CC)C2C1N=C(SC)N2/N=C/C=C/c1ccccc1[N+](=O)[O-] (stereo unspecified) next?
inactive

Can you handle "Cc1nc2cnc(N)c(C#Cc3cncc(C(=O)Nc4ccc(Cl)c(C(F)(F)F)c4)c3)c2nc1C" next?
active

Can you handle "Cc1c(Nc2nnc(SCC(=O)Nc3sc4c(c3C#N)CCCC4)s2)c(=O)n(-c2ccccc2)n1C" next?
inactive

Can you handle "COc1cc(/C=C/C(=O)c2cc(OC)c(OC)c(OC)c2)ccc1Oc1nc(NCCO)nc(N2CCOCC2)n1" next?
active

Can you handle "Clc1ccc2c(OCCCN3CCOCC3)c3oc4ccccc4c3nc2c1" next?
inactive

Can you handle O=C(c1ccc(O)cc1)C1[C@H](c2ccc(Cl)cc2)[C@@H](c2ccccc2)NC12C(=O)Nc1ccc(Cl)cc12 (stereo partly specified) next?
inactive

Can you handle CCOc1ccc([C@H]2C(C(=O)c3ccc(Cl)cc3)C3(N[C@@H]2c2ccccc2)C(=O)Nc2ccc(Br)cc23)cc1 (stereo partly specified) next?
active

Can you handle "COc1ccc(/C=C/C(=O)c2ccc(NC(=O)CSc3nnc(-c4ccc5nc(-c6ccc(Cl)cc6)[nH]c5c4)o3)cc2)cc1" next?
inactive

Can you handle "CC(C)(C)Nc1nc2c(OCCc3ccccc3)cccn2c1-c1ccccc1Cl" next?
active

Can you handle "CC(C)(C)Nc1nc2c(OCCc3ccccc3)cccn2c1-c1cccc(F)c1" next?
active
